survival values, listed per item
- Test system: DeltatarO mutant
- assay remarks: S. aureus survival, RN4220 and DeltatarO strains – OD600, teichoic acid synthesis inhibitors, primary screen (AID 463173)
- condition description: S. aureus RN4220 wild type/DeltatarO growth, OD600, 18 h, hits give low values, screened at 18.75 µg/mL (by protocol)
Hit rate of the full screen: of about 52,000 compounds, about 4,300 (8.3%) were called active. For the sample, actives were picked, then their nearest neighbours and some compounds at random.
observable: survival (%)

INSERT INTO results (compound, observable, test_result) VALUES
  ('CCCN(C(=O)c1cc2c(=O)oc3ccc(C)cc3c2s1)c1ccc(OCC)cc1', 'survival', 48),
  ('O=C(COCc1cc(-c2ccc3c(c2)OCO3)on1)Nc1cc(Cl)ccc1O', 'survival', 60),
  ('O=C(NCc1ccc2c(c1)OCO2)c1ccc2c(c1)N(Cc1ccccc1)C(=O)c1ccccc1S2=O (stereo not given)', 'survival', 83),
  ('Cc1ccc2c(c1)cc(C(=O)Nc1ccc(F)cc1F)n2C', 'survival', 106),
  ('Cc1cc(C)c2oc(-c3ccc(Cl)c(NC(=O)c4cccs4)c3)nc2c1', 'survival', 55),
  ('COc1ccc(NC(=O)Cn2ncc3c(C)n(Cc4cccc(Cl)c4)c(C)c3c2=O)cc1', 'survival', 92),
  ('CCCCn1c(=O)c2oc3ccccc3c2n(CC(=O)Nc2cc(C)ccc2C)c1=O', 'survival', 44),
  ('Cc1ccc(C2C=C(c3ccc(Cl)cc3)Nc3nc(NS(=O)(=O)c4ccccc4)nn32)cc1 (stereo not given)', 'survival', 62),
  ('CCC(Oc1ccccc1)C(=O)Nc1cccc(OCc2cc(=O)n3cccc(C)c3n2)c1 (stereo not given)', 'survival', 128),
  ('COC(=O)c1ccccc1NC(=O)CN(c1ccc(Cl)cc1)S(=O)(=O)c1ccc(OC)cc1', 'survival', 72),
  ('COC(=O)c1ccc(C(=O)OC)c(NC(=O)c2c(-c3ccccc3)noc2C)c1', 'survival', 147),
  ('Cc1cccc(-n2c(SCC(=O)Nc3ccc(C)c(C)c3)nc3n[nH]c(C)c3c2=N)c1', 'survival', 87),
  ('Cc1ccc(S(=O)(=O)Nc2nc3n(n2)C(c2ccc(Cl)cc2)C=C(c2ccccc2)N3)cc1 (stereo not given)', 'survival', 2),
  ('O=C(Nc1cccc(C(=O)OCc2cc(=O)n3c4c(sc3n2)CCCC4)c1)c1ccccc1', 'survival', 102),
  ('Cc1ccc(C)c(NC(=O)Cn2c(=O)n(Cc3ccccc3)c(=O)c3oc4ccccc4c32)c1', 'survival', 62),
  ('CCc1ccccc1N(C)C(=O)c1cc2c(=O)oc3ccccc3c2s1', 'survival', 42),
  ('Cc1ccc(Cl)cc1-n1c(SCC(=O)NCc2ccccc2)nc2n[nH]c(C)c2c1=N', 'survival', 81),
  ('Cc1cccc(OCc2cc(=O)n3c(-c4ccccc4)csc3n2)c1C', 'survival', 77),
  ('O=C(O)c1cc(N2C(=O)C3CC=CCC3C2=O)ccc1NCc1cccnc1 (stereo not given)', 'survival', 90),
  ('CCCc1nn2c(=O)cc(COC(=O)c3cccc(NC(=O)COc4ccc(F)cc4)c3)nc2s1', 'survival', 99),
  ('COc1ccc(C2=CC(c3ccccc3Cl)n3nc(-c4ccc(C)cc4)nc3N2)cc1 (stereo not given)', 'survival', 91),
  ('CCc1ccc(-c2cc(C)no2)cc1S(=O)(=O)N1CCN(c2cccc(Cl)c2)CC1', 'survival', 89),
  ('CCOc1ccc(N(CC)C(=O)c2cc3c(=O)oc4ccccc4c3s2)cc1', 'survival', 38),
  ('O=C(Nc1ccc(C(=O)OCc2cc(=O)n3c4c(sc3n2)CCCC4)cc1)c1ccccc1', 'survival', 25),
  ('CCOCCc1nn2c(=O)cc(COC(=O)c3ccc(NC(=O)c4cccs4)cc3)nc2s1', 'survival', 112),
  ('Cc1ccc(C2C=C(c3ccccc3)Nc3nc(NS(C)(=O)=O)nn32)cc1 (stereo not given)', 'survival', 67),
  ('COC(=O)c1cc(C)nc2c1c(=O)nc(SCc1cccc(C)c1)n2C1CC1', 'survival', 78),
  ('COc1ccc(OCC(=O)Nc2ccc(-c3nc4cc(C)cc(C)c4o3)cc2)cc1', 'survival', 75),
  ('CC(C)CCN1C(=O)c2ccccc2CC1(C)C(=O)NC1CCC(C)CC1 (stereo not given)', 'survival', 100),
  ('Cn1c(SCC#N)nc2c(c1=O)C1(CCCCC1)Cc1ccccc1-2', 'survival', 103),
  ('CCCc1nn2c(=O)cc(COC(=O)c3ccc(NC(=O)COc4ccccc4)cc3)nc2s1', 'survival', 92),
  ('Cc1c(Cl)cccc1-n1c(SCC(=O)NCc2ccccc2)nc2n[nH]c(C)c2c1=N', 'survival', 126),
  ('COCCNC(=O)Cn1nc(N2CCN(c3ccccc3OC)CC2)ccc1=O', 'survival', 94),
  ('Cc1ccc(NC(=O)CSc2nc3n[nH]c(C)c3c(=N)n2-c2cccc(C)c2)cc1', 'survival', -5),
  ('Cc1ccccc1OCc1cc(=O)n2c(-c3ccccc3)csc2n1', 'survival', 69),
  ('COC(=O)C(NC(=O)CCc1c(C)nc2c(-c3ccccc3)c(C)nn2c1C)C(C)C (stereo not given)', 'survival', 109),
  ('CCOc1ccc(CNC(=O)C2CCN(C(=O)N3CC(CC)Oc4ccc(C)cc43)CC2)cc1OC (stereo not given)', 'survival', 77),
  ('CCN(Cc1ccccc1)C(=O)c1cc2ccc3cccnc3c2[nH]1', 'survival', 49),
  ('Cc1ccc(NCc2cccn2-c2nnc(N3CCC(C(=O)NCc4ccc(OC(C)C)cc4)CC3)s2)cc1', 'survival', 69),
  ('COc1ccc(-c2cn3c(n2)sc2cc(C(=O)NCC(C)c4ccccc4)ccc23)cc1 (stereo not given)', 'survival', 65);

====

survival values, listed per item
- System: DeltatarO mutant
- assay remarks: S. aureus survival, RN4220 and DeltatarO strains – OD600, teichoic acid synthesis inhibitors, primary screen (AID 463173)
- condition description: S. aureus RN4220 wild type/DeltatarO growth, OD600, 18 h, hits give low values, screened at 18.75 µg/mL (by protocol)
Among all 52,000 compounds or so, about 4,300 (8.3%) were called active. The entries come from a sample that favours actives as a whole.
observable: survival (%)

INSERT INTO assay_data (record_smiles, unit_name, test_result) VALUES
  ('Cc1ccc(CCNC(=O)CCSCc2ccccc2F)cc1', '%', -4),
  ('CC(C)Oc1ccc(CNC(=O)c2ccccc2NC(=O)c2nsc3ccccc23)cc1', '%', 122),
  ('CCOc1ccc(CNC(=O)c2ccccc2NC(=O)c2nsc3ccccc23)cc1', '%', -5),
  ('Cc1ccc(CCNC(=O)CCSCc2ccccc2Cl)cc1', '%', 20),
  ('O=C(CCSCc1cccc(Cl)c1)NCCc1ccc(Cl)cc1', '%', 76),
  ('CCc1ccc(CNC(=O)CCSCc2ccccc2F)cc1', '%', 96);

====

- Test system: DeltatarO mutant
- assay remarks: S. aureus survival, RN4220 and DeltatarO strains – OD600, teichoic acid synthesis inhibitors, primary screen (AID 463173)
- condition description: S. aureus RN4220 wild type/DeltatarO growth, OD600, 18 h, hits give low values, screened at 18.75 µg/mL (by protocol)
Hit rate of the full screen: of about 52,000 compounds, about 4,300 (8.3%) were called active. What follows is part of a selection rich in actives, with near analogues and random picks from the rest.
observable: survival (%)

INSERT INTO assay_data (molecule, assayed_target, unit_name, test_result) VALUES
  ('O=C(Cn1cccc1C(=O)c1ccccc1)NCc1ccc(Cl)cc1', 'DeltatarO mutant', '%', 98),
  ('CC(C)(C)C(=O)CSc1nnc(-c2ccccc2)o1', 'DeltatarO mutant', '%', 85),
  ('COc1ccc(-c2nc(CSCC(=O)N3CCN(c4cccc(C)c4C)CC3)c(C)o2)cc1OC', 'DeltatarO mutant', '%', 49),
  ('CCc1ccc(-c2nc(CSCC(=O)N3CCN(c4ccc(F)cc4)CC3)c(C)o2)cc1', 'DeltatarO mutant', '%', 73),
  ('Cc1ccc(NC(=O)Cn2c(=O)n(CCCCC(=O)NCc3ccc4c(c3)OCO4)c(=O)c3ccccc32)cc1', 'DeltatarO mutant', '%', 72),
  ('NC(=O)CSc1ncc2c(n1)-c1ccccc1N(Cc1ccccc1)S2(=O)=O', 'DeltatarO mutant', '%', 89),
  ('Cc1cccc(-c2nc(CSCC(=O)N3CCN(c4ccccc4)CC3)c(C)o2)c1', 'DeltatarO mutant', '%', 17),
  ('CCN1c2ccccc2-c2nc(SCC(=O)NCc3ccc(Cl)cc3)ncc2S1(=O)=O', 'DeltatarO mutant', '%', 46),
  ('Cc1ccc(CN2c3ccccc3-c3nc(SCC(=O)NCCc4ccccc4)ncc3S2(=O)=O)cc1', 'DeltatarO mutant', '%', 55),
  ('CC1=C(C(=O)Nc2ccc(C)cc2C)C(c2ccc(O)cc2)n2nc(SCC(=O)c3ccc(C)cc3)nc2N1 (stereo not given)', 'DeltatarO mutant', '%', 125);
